protocol-notes: CCTE_Shafer_MEA_dev_network_spike_peak: CCTE's Neural Network Formation Assay for Mean Number of Electrodes in Network Spike, Shafer Lab (AID 2284049)
Calls of active or inactive are those of the source. The calls were made as follows: active = hit-call score of the fitted dose curve at least 0.9, where 1 is the maximum; inactive = score below 0.9.
Hi! Could you answer with just one of these? true (1) (active), false (0) (inactive)

### Prompt Check the results log: what was the call for CC(=O)[O][Hg][c]1ccccc1 ?
### Response true (1)

### Prompt // return assay outcome for CC(C)(C)c1cc(O)ccc1O
### Response true (1)

### Prompt Test call, this compound: ClC1(Cl)C2(Cl)C3(Cl)C4(Cl)C(Cl)(Cl)C5(Cl)C3(Cl)C1(Cl)C5(Cl)C24Cl (stereo not given)
### Response true (1)

### Prompt Can you look up the reported call for O=C(O)C(F)(F)C(F)(F)C(F)(F)C(F)(F)C(F)(F)C(F)(F)F for me?
### Response false (0)

### Prompt What call does the record list for O=C(O)C(F)(F)C(F)(F)C(F)(F)C(F)(F)C(F)(F)C(F)(F)C(F)(F)C(F)(F)C(F)(F)C(F)(F)F ?
### Response false (0)

* * *

protocol-notes: ATG_PPRE_CIS: Attagene CIS-FACTORIAL HepG2 Assay for human Peroxisome Proliferator-activated Response Element (PPRE) (AID 2282958)
test-settings: HepG2 PPRE cis-element reporter, Attagene transcription factor profiling; actives raise or lower the signal
The source made the active and inactive calls. How the source made its calls: active means hit-call score of the fitted dose curve at least 0.9, where 1 is the maximum; inactive means score below 0.9.
observed-property: AC50

Look over these answered cases.
COP(=S)(OC)Oc1cc(Cl)c(Cl)cc1Cl | 26.6 µM (active)
CCC[CH2][Sn]([CH2]CCC)([CH2]CCC)[O]C(=O)c1ccccc1 | 0.0115 µM (active)
CCOP(=S)(OCC)SCSP(=S)(OCC)OCC | inactive
CC(C#N)CCC#N (configuration not stated) | inactive
O=C/C=C/c1ccccc1 | inactive
O=c1[nH]c(=O)[nH]c(=O)[nH]1 | inactive

Here's the next entry for you.
The measured AC50 associated with N#CCc1ccc(Cl)cc1 reads inactive

* * *

target-desc: human Matrix Metalloproteinase-9 (MMP9), MMP9 (gene 4318) (UniProt P14780)
Sequence (P14780 whole entry, looked up): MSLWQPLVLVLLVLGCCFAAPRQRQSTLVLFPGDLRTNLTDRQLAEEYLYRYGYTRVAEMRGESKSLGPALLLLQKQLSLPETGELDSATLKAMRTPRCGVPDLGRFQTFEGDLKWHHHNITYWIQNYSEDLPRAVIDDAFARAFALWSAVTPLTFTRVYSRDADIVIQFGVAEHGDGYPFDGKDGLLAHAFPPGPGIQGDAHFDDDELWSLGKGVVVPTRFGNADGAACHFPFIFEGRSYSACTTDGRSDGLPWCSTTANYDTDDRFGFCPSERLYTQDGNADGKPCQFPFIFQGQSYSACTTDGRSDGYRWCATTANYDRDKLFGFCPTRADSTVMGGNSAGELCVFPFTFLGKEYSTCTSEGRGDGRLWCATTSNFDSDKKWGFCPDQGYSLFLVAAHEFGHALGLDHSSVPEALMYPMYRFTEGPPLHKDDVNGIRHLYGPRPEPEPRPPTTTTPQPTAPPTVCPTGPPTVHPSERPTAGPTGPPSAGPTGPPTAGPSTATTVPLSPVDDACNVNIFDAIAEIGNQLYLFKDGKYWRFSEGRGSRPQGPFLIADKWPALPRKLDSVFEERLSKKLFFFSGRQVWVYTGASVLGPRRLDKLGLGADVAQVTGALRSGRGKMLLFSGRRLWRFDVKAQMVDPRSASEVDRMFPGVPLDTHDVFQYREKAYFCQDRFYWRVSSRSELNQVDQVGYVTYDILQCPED
protocol-notes: NVS_ENZ_hMMP9: NovaScreen (NVS) Enzymatic Assay for human Matrix Metalloproteinase-9 (MMP9) (AID 2283190);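 also: cell-free recombinant MMP9 protease activity read by fluorescent substrate signal; active means inhibition seen as loss of fluorescence signal versus DMSO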
Experimental: NVS_ENZ_hMMP9 is a biochemical, single-readout assay that uses extracted gene-proteins in a cell-free assay. Measurements were taken 1 hour after chemical dosing in a 96-well plate.NVS_ENZ_hMMP9 is one of one assay component(s) measured or calculated from the NVS_ENZ_hMMP9 assay. […] This assay endpoint, NVS_ENZ_hMMP9, was analyzed in the positive analysis fitting direction relative to DMSO as the negative control and baseline of activity. […]
Results filed as inconclusive are left out. Calls of active or inactive are those of the source. The calls were made as follows: active = hit-call score of the fitted dose curve at least 0.9, where 1 is the maximum; inconclusive = response in the unintended direction; inactive = score below 0.9.
Outcomes you can answer with include only these: Y (active), N (inactive)

### Prompt // return assay outcome for ClC1=C(Cl)[C@]2(Cl)[C@H]3[C@H]([C@H]4C=C[C@H]3C4)[C@@]1(Cl)C2(Cl)Cl
### Response Y

### Prompt What is the recorded call for this molecule in the test? CCN1CCC2(CC1)COc1cc3c(cc12)N(C(=O)c1ccc(-c2ccc(-c4nnc(C)o4)cc2C)cc1)CC3
### Response Y

### Prompt For Nc1cccc(Cl)c1 , what call appears in the results of this test?
### Response Y

### Prompt Hi team, can someone confirm the assay call for Clc1ccc(C2(Cn3cncn3)CC(Br)CO2)c(Cl)c1 (stereo not given) ?
### Response N

### Prompt GET /call?item= O=C(OC1CCCCC1)c1ccccc1C(=O)OC1CCCCC1 returns the recorded outcome of this test.
### Response Y

* * *

Read-out: Vascular cell adhesion molecule 1 (VCAM1), VCAM1 (gene 7412)
protocol-notes: BSK_LPS_VCAM1: BioMAP Diversity Plus: LPS Assay for Vascular cell adhesion molecule 1 (VCAM1) Biomarker Activity (AID 2283086)
test-settings: primary human HUVEC with PBMC; actives raise or lower the signal
Method: BSK_LPS is a cell-based, multiplexed-readout assay that uses umbilical vein endothelium and peripheral blood mononuclear cells, a human vascular primary cell co-culture, with measurements taken at 24 hours after chemical dosing in a 96-well plate.BSK_LPS_VCAM1 is an assay component measured in the BSK_LPS assay. It measures VCAM-1 antibody related to regulation of gene expression using ELISA technology.Data from the assay component BSK_LPS_VCAM1 was analyzed into 1 assay endpoint. […]
The source made the active and inactive calls. How the source made its calls: active means hit-call score of the fitted dose curve at least 0.9, where 1 is the maximum; inactive means score below 0.9.
Assign a class; possible classes are yes for active, no for inactive

### Prompt Returns: the outcome recorded for BrCCBr in this assay.
### Response no

### Prompt So what was the verdict on CC(C)CCCCCCOC(=O)c1ccccc1C(=O)OCCCCCCC(C)C in this test?
### Response no

### Prompt Record request — test call for C[C@@H]1C[C@@H]([C@H](O)CC2CC(=O)NC(=O)C2)C(=O)[C@@H](C)C1
### Response yes

### Prompt Give the logged outcome of this assay for the following compound: Cc1ccccc1N
### Response no

### Prompt // param item: CC12CC1(C)C(=O)N(c1cc(Cl)cc(Cl)c1)C2=O (configuration not stated) ; yields the recorded call
### Response no

### Prompt Answer briefly: the call reported for CCSC(C)CC1CC(=O)C(C(CC)=NOC/C=C/Cl)=C(O)C1 (configuration not stated) in this assay.
### Response no

### Prompt // outcome(item) with item = C[C@]12CCC(=O)C[C@@H]1CC[C@@H]1[C@@H]2CC[C@]2(C)[C@@H](O)CC[C@@H]12
### Response yes

* * *

protocol-notes: NVS_IC_rCaBTZCHL: NovaScreen (NVS) Ion Channel Assay for Calcium Channel, Type L, Benzothiazepine Site (CaBTZCHL) (AID 2283337)
Records with an inconclusive call do not appear. Activity calls are given as the source filed them. The calls were made as follows: active = hit-call score of the fitted dose curve at least 0.9, where 1 is the maximum; inconclusive = response in the unintended direction; inactive = score below 0.9.
Select the correct class. Options are 1 = active, -1 = inactive and nothing else.

### Prompt In this assay, the call recorded for CCC(=O)C(CC(C)N(C)C)(c1ccccc1)c1ccccc1 (stereo not given) was what?
### Response 1

### Prompt Dear all, I need the recorded test outcome for Cn1sc(Cl)cc1=O , thank you.
### Response -1

### Prompt Check the results log: what was the call for CCN1CCC2(CC1)COc1cc3c(cc12)N(C(=O)c1ccc(-c2ccc(-c4nnc(C)o4)cc2C)cc1)CC3 ?
### Response 1

### Prompt Hi, sorry to bother you, what did the test record for C=C(C)C(=O)[O][Sn]([CH2]CCC)([CH2]CCC)[CH2]CCC ?
### Response 1

### Prompt State the result this test recorded for COP(=S)(OC)Oc1ccc(Sc2ccc(OP(=S)(OC)OC)cc2)cc1 .
### Response 1

* * *

protocol-notes: BSK_LPS_PGE2: BioMAP Diversity Plus: LPS Assay for Prostaglandin E2 (PGE2) Biomarker Activity (AID 2283082)
test-settings: primary human HUVEC with PBMC; actives raise or lower the signal
The source made the active and inactive calls. How the source made its calls: active means hit-call score of the fitted dose curve at least 0.9, where 1 is the maximum; inactive means score below 0.9.
Write down the outcome that applies. Available outcomes: 1 for active, -1 for inactive

### Prompt Check the results log: what was the call for COP(=S)(OC)Oc1cc(Cl)c(Cl)cc1Cl ?
### Response -1

### Prompt Which outcome was entered for the molecule O=Cc1cccc(Oc2ccccc2)c1 in this test?
### Response -1

### Prompt Each molecule tested received a call. Report the one for C(=NC1CCCCC1)=NC1CCCCC1 .
### Response -1

### Prompt # outcome recorded in this test, key = C[C@]12CCC(=O)C[C@@H]1CC[C@@H]1[C@@H]2CC[C@]2(C)[C@@H](O)CC[C@@H]12
### Response -1

### Prompt For O=[N+]([O-])c1ccc(O)c([N+](=O)[O-])c1 , which call appears in the assay record?
### Response -1

### Prompt Test call, this molecule: O=C(Nc1ccc2[nH]ccc2c1)c1cc2cc(F)ccc2n1Cc1cccc(F)c1
### Response 1

* * *

Read-out: Pyruvate Dehydrogenase Kinase 4 (PDK4), PDK4 (gene 5166)
protocol-notes: LTEA_HepaRG_PDK4: Life Technologies and Expression Analysis (LTEA) Assay for Pyruvate Dehydrogenase Kinase 4 (PDK4) using HepaRG (AID 2283525)
test-settings: mRNA level, 48 h; actives raise or lower the signal
Protocol: LTEA_HepaRG is a cell based, multiplexed-readout assay that uses HepaRG, a human liver cell line, with measurements taken at 48 hours after chemical dosing on a 96-well plate.LTEA_HepaRG_PDK4 is one of 102 assay component(s) measured in the LTEA HepaRG cell culture assay. It is a marker of Diseases associated with PDK4 including Platelet Glycoprotein Iv Deficiency and Diabetes Mellitus, Noninsulin-Dependent.Data from the assay component LTEA_HepaRG_PDK4 was analyzed into 1 endpoint. […]
Calls of active or inactive are those of the source. How the source made its calls: active means hit-call score of the fitted dose curve at least 0.9, where 1 is the maximum; inactive means score below 0.9.
API: response.call in active, inactive

### Prompt Could you kindly confirm the outcome this assay logged for O=c1[nH]c(=O)[nH]c(=O)[nH]1 ?
### Response inactive

### Prompt Test call for this compound, please: ClC1(Cl)C2(Cl)C3(Cl)C4(Cl)C(Cl)(Cl)C5(Cl)C3(Cl)C1(Cl)C5(Cl)C24Cl (stereo not drawn)
### Response active

### Prompt What call does the record list for Oc1cccc2cccnc12 ?
### Response inactive

### Prompt GET /call?item= CCOP(=S)(OCC)Oc1nc(Cl)c(Cl)cc1Cl returns the recorded outcome of this test.
### Response inactive

### Prompt Name the outcome recorded for C[C@@H]1C[C@@H]([C@H](O)CC2CC(=O)NC(=O)C2)C(=O)[C@@H](C)C1 in the assay.
### Response active

### Prompt Fill in: this test's call for O=C(Nc1ccc2[nH]ccc2c1)c1cc2cc(F)ccc2n1Cc1cccc(F)c1 is ___
### Response active

### Prompt So what was the verdict on ClCC(Cl)CCl in this test?
### Response inactive

### Prompt For CC(C)(OO)c1ccccc1 , which call appears in the assay record?
### Response inactive
